meta.source: ChEMBL document CHEMBL1201862

GI50 values by entry
Tested on: UACC-62
Assay: NCI tumour cell line growth inhibition, 48 h
Active and inactive are the calls of the source. No stated cut-off is given here; in the data, active = GI50 up to about 1.1 µM and inactive = higher.

{"molecule": "C[N+](C)(C)CC1CCCCC1O (centres undefined)", "tested on": "UACC-62", "GI50": "> 100 µM (inactive)"}
{"molecule": "CCOc1ccc(N(CC(=O)N2CC(=O)Nc3cc(C)c(C)cc32)C(C)=O)cc1", "tested on": "UACC-62", "GI50": "> 100 µM (inactive)"}
{"molecule": "COC(=O)C1C(OS(=O)(=O)O)CCC2CN3CCc4c([nH]c5ccccc45)C3CC21 (centres undefined)", "tested on": "UACC-62", "GI50": "> 100 µM (inactive)"}
{"molecule": "Cn1nc(C(=O)N2CC(CCl)c3c2cc([N+](=O)[O-])c2ccccc32)cc1NC(=O)Nc1cc(C(=O)N2CC(CCl)c3c2cc([N+](=O)[O-])c2ccccc32)nn1C (centres undefined)", "tested on": "UACC-62", "GI50": "> 100 µM (inactive)"}
{"molecule": "C#C[C@]1(O)CC[C@H]2[C@@H]3CCC4=C/C(=N/CCOC(=O)c5cccc6c(=O)c7ccccc7[nH]c56)CC[C@@H]4[C@H]3CC[C@@]21C", "tested on": "UACC-62", "GI50": "36.8 µM (inactive)"}

For the molecule shown here, O=c1c2nc(-c3ccccc3)oc2n(-c2ccccc2)c(=O)n1-c1ccccc1 , give the reported GI50. 31.1 µM (inactive)

For the molecule shown here, CC1=NC2(CCCCC2)N(Cl)C(=O)C1SC#N (centres undefined) , give the reported GI50. 13.4 µM (inactive)

For the molecule shown here, Cc1cc(O)nc(NN2C(Cl)C(=O)C2c2ccco2)n1 (centres undefined) , give the reported GI50. 26.5 µM (inactive)

For the molecule shown here, O=C(O)c1ccc(CNCc2ccccc2)cc1 , give the reported GI50. > 100 µM (inactive)

* * *

GI50 values by entry
Test system: IGROV-1
Assay: NCI tumour cell line growth inhibition, 48 h
Calls of active or inactive are those of the source. No stated cut-off is given here; in the data, active = GI50 up to about 1.1 µM and inactive = higher.

# count of solved cases: 3
{"compound": "CS(=O)(=O)c1c(N)c2nc(Cl)cn2c2nc3ccccc3nc12", "measurement kind": "GI50", "observed measurement": "> 100 µM (inactive)"}
{"compound": "COc1ccc2cc1Oc1ccc(cc1)CC1c3cc4c(cc3CCN1C)Oc1c(OC)cc3c(c1O4)C(C2)N(C)CC3 (stereo not given)", "measurement kind": "GI50", "observed measurement": "> 10 µM (inactive)"}
{"compound": "O=S(=O)(O)c1ccc2c(/N=N\\c3ccc(F)cc3)c(O)c(S(=O)(=O)O)cc2c1", "measurement kind": "GI50", "observed measurement": "> 100 µM (inactive)"}

For the compound shown here, N#CC(/C(=N/NC(N)=S)C(=O)Nc1cccc(Cl)c1)c1ccccc1 (stereo not given) , give the reported GI50. > 100 µM (inactive)

For the compound shown here, Cc1ccc(-n2cc(-c3ccc(Cl)cc3)c(C#N)c2N)cc1 , give the reported GI50. 15.9 µM (inactive)

For the compound shown here, CCOC(=O)c1cc(C2CCN(CC(C)CC)C2=S)c(C(=O)/C=C(/C)N)[nH]1 (stereo not given) , give the reported GI50. > 50 µM (inactive)

For the compound shown here, O=c1cc2n(c(=O)[nH]1)C1OC(C(O)C1O)[C@H]2CCO (stereo not given in full) , give the reported GI50. > 100 µM (inactive)

For the compound shown here, Cc1cc(S(=O)(=O)Nc2nc(N)n(-c3ccccn3)n2)c(S)cc1Cl , give the reported GI50. > 100 µM (inactive)

For the compound shown here, CCOC(=O)C1(C(C)=O)OC(=O)c2cnccc21 (stereo not given) , give the reported GI50. > 100 µM (inactive)

For the compound shown here, C1COCCOP2(N3CC3)=NP(N3CC3)(=NP(N3CC3)(N3CC3)=N2)OCCOCCO1 (stereo not given) , give the reported GI50. > 100 µM (inactive)

* * *

Tested on: NCI-H522
Assay: NCI tumour cell line growth inhibition, 48 h
Activity calls are given as the source filed them. Rule as the data show it: active = GI50 up to about 1.1 µM and inactive = higher.
GI50 values by entry

# count of solved cases: 3
{"compound": "COC(=O)/C(=N\\Nc1nc(S)nn1N)C(C#N)c1ccccc1 (stereo not drawn)", "GI50": "> 100 µM (inactive)"}
{"compound": "Cc1cc2c(cc1-c1cc3c(cc1C)C(C(C)C)=C(O)C(=O)/C3=C\\NCC1CCCN3CCCCC13)/C(=C/NCC1CCCN3CCCCC13)C(=O)C(O)=C2C(C)C (stereo not drawn)", "GI50": "2.84 µM (inactive)"}
{"compound": "CCOC(=O)c1c(SCC#N)n(-c2ccccc2)c(=S)n(-c2ccccc2)c1=O", "GI50": "34.4 µM (inactive)"}

State its GI50 on NCI-H522: N#Cc1c(Cl)cc(C#N)n2c1nc1ccccc12 2.42 µM (inactive)

State its GI50 on NCI-H522: Cn1nc(C(=O)N2CC(CCl)c3c2cc([N+](=O)[O-])c2ccccc32)cc1NC(=O)Nc1cc(C(=O)N2CC(CCl)c3c2cc([N+](=O)[O-])c2ccccc32)nn1C (stereo not drawn) > 100 µM (inactive)

State its GI50 on NCI-H522: CC(=O)O[C@H]1CC[C@@H](OC(C)=O)[C@H]2[C@H](O)[C@H](O)[C@@H]1n1c(=O)n(-c3ccccc3)c(=O)n12 > 100 µM (inactive)

State its GI50 on NCI-H522: O=C1C[S+]([O-])C23c4cc5ccccc5n4CCC2CCCN13 (stereo not drawn) > 100 µM (inactive)

State its GI50 on NCI-H522: COc1ccc2[nH]c3c(c2c1)[C@H](C)C[C@@H]1C(=O)N(c2ccccc2)C(=O)[C@H]31 16.1 µM (inactive)

* * *

System: RXF 393
Assay: NCI tumour cell line growth inhibition, 48 h
Active and inactive are the calls of the source. No stated cut-off is given here; in the data, active = GI50 up to about 1.1 µM and inactive = higher.
measurement kind: GI50

# count of solved cases: 5
{"molecule": "Cc1ccc(F)c2c(=O)cc(-c3ccccc3)[nH]c12", "measurement kind": "GI50", "observed measurement": "> 100 µM (inactive)"}
{"molecule": "COC(=O)C[S+]([O-])c1ccccc1 (stereo unspecified)", "measurement kind": "GI50", "observed measurement": "16.4 µM (inactive)"}
{"molecule": "C[N+](CCCl)(CCCl)Cc1cccc2cccc([N+](=O)[O-])c12", "measurement kind": "GI50", "observed measurement": "> 100 µM (inactive)"}
{"molecule": "N#Cc1c(O)n(-c2ccccc2)c(=O)c2c(N)n[nH]c12", "measurement kind": "GI50", "observed measurement": "> 100 µM (inactive)"}
{"molecule": "N#CC(/C(CCCC(=O)Nc1cccc([N+](=O)[O-])c1)=N/NC(=O)c1cc2ccccc2cc1O)c1ccccc1 (stereo unspecified)", "measurement kind": "GI50", "observed measurement": "5.07 µM (inactive)"}

Now take the following molecule into account.
For the molecule shown here, O=C1C[S+]([O-])C23c4cc5ccccc5n4CCC2CCCN13 (stereo unspecified) , give the reported GI50. > 100 µM (inactive)

* * *

System: ACHN
Assay: NCI tumour cell line growth inhibition, 48 h
The source made the active and inactive calls. No stated cut-off is given here; in the data, active = GI50 up to about 1.1 µM and inactive = higher.
Return exactly one item of Yes for active, No for inactive

# count of solved cases: 3
{"molecule": "COc1ccc(/C=C2\\CCC(CCN(C)C)(C3=CCCC3)C2=O)cc1Br (stereo not given)", "tested on": "ACHN", "classification": "No"}
{"molecule": "C[N+](C)(C)CC1CCCCCCCCCCC1=O (stereo not given)", "tested on": "ACHN", "classification": "No"}
{"molecule": "Cc1cc(C)c(-n2c(-c3ccc(Br)cc3)cs/c2=N\\N=C2C=C(C(C)(C)C)C(=O)C(C(C)(C)C)=C2)c(C)c1", "tested on": "ACHN", "classification": "No"}

Please share the test call associated with COC(=O)C1=CCS(=O)(=O)C1 . No

* * *

Tested on: HCT-15
GI50 values by entry
Dear colleague, please return just the value in µM, with no unit written.

{"compound": "Cc1cc(C)c(C2=NOC(c3ccccc3)(c3cc(=O)n(-c4ccccc4)s3)O2)c(C)c1 (centres undefined)", "GI50 (µM)": 19.3}

State its GI50 on HCT-15: COC(=O)CCCC(=O)NC1=C(Nc2ccccc2)C(=O)c2ccccc2C1=O 15.1

State its GI50 on HCT-15: C=C1C(=O)C[C@H]2C(=C)C(=O)O[C@@H]2C2C1CC[C@@]2(C)O (some centres undefined) 17.7

State its GI50 on HCT-15: COc1cc(C2c3cc4c(cc3[C@H](NS(C)(=O)=O)C3COC(=O)[C@H]23)OCO4)cc(OC)c1OC (some centres undefined) 0.448

State its GI50 on HCT-15: COc1ccc2cc1Oc1ccc(cc1)C(Sc1ccccc1)CCOC(=O)CC2 (centres undefined) 18.1

State its GI50 on HCT-15: Cc1cc(O)c2c(c1)CC(O)C1=C2C(=O)c2c(O)ccc(OC3CC(O)C(OC4CC(OC5CCC(O)C(C)O5)C(O)C(C)O4)C(C)O3)c2C1=O (centres undefined) 1.96

State its GI50 on HCT-15: CCN(CC)CC(O)C1CCC(c2ccccc2)CC1 (centres undefined) 13.2

State its GI50 on HCT-15: COc1ccc2cc1Oc1ccc(cc1)CC1c3cc4c(cc3CCN1C)Oc1c(OC)cc3c(c1O4)C(C2)N(C)CC3 (centres undefined) 2.42
